# assay name: cAMP Responsive Elements (CRE) small molecule antagonists, cell-based qHTS assay: qHTS cell viability counter screen (AID 2060913); further: on the % scale 0 is the no-effect control and ±100 the full control effect; nearly all actives have a fitted effect of over 40% in size
# run conditions: CRE-bla HEK293T viability, CellTiter-Glo luminescence, 5 h; series mostly up to 92.4 µM
Inconclusive results are not listed. Calls of active or inactive are those of the source. The call rests on the fitted dose curve; in most records, active means well fitted cell-killing curve with a large enough effect in the repeat runs; inconclusive means weak or mixed curves, or effect the other way; inactive means flat fitted curve, though single readings scatter.
parameter measured: viability change, negative = cytotoxic

Below: 5 compounds and their reported viability change, negative = cytotoxic.
1. NC(=O)NS(=O)(=O)c1ccc(Cl)cc1 | inactive
2. O=C(O)CCC(=O)C(=O)O | inactive
3. c1ccc(SSc2ccccc2)cc1 | inactive
4. CCN(CC)CC(=O)OCC(=O)[C@@]1(O)CC[C@H]2[C@@H]3CCC4=CC(=O)CC[C@]4(C)[C@H]3[C@@H](O)C[C@@]21C | inactive
5. Cc1ccc2c(Br)cc(Br)c(O)c2n1 | inactive

Entry `C=CC(=O)OCCN(CC)CC` , viability change, negative = cytotoxic reported as inactive

Entry `CCCCOCCOC(=O)COc1nc(Cl)c(Cl)cc1Cl` , viability change, negative = cytotoxic reported as inactive

Entry CC(=O)/C=C/C=C1/C2CCC(C2)C1(C)C (stereo not given) , viability change, negative = cytotoxic reported as inactive

Entry `COc1ccc2cc1Oc1ccc(cc1)C[C@H]1c3c(cc4c(c3Oc3cc5c(cc3OC)CCN(C)[C@@H]5C2)OCO4)CCN1C` , viability change, negative = cytotoxic reported as inactive

Entry `CCCOCCC` , viability change, negative = cytotoxic reported as inactive

Entry `Cc1ccc(Cl)c(Nc2ccccc2C(=O)O)c1Cl` , viability change, negative = cytotoxic reported as inactive

Entry `O=NN(CCCl)C(=O)NC1CCCCC1` , viability change, negative = cytotoxic reported as inactive

Entry CCCCN1CCCC1C(=O)Nc1c(C)cc(C)cc1C (stereo not given) , viability change, negative = cytotoxic reported as inactive

Entry CC(C)=CC1CC(C)CCO1 (stereo not given) , viability change, negative = cytotoxic reported as inactive

Entry `CCc1c(C)cc(N)c(CC)c1N` , viability change, negative = cytotoxic reported as inactive

Entry `CCOc1nc2cccc(C(=O)O)c2n1Cc1ccc(-c2ccccc2-c2nn[nH]n2)cc1` , viability change, negative = cytotoxic reported as inactive

Entry Cc1cccc(N(C)C(=S)Oc2ccc3c(c2)C2CCC3C2)c1 (stereo not given) , viability change, negative = cytotoxic reported as inactive

Entry `C=CCOC(=O)/C=C\C(=O)OCC=C` , viability change, negative = cytotoxic reported as inactive

Entry `CC(C)CC(=O)N[C@H](C(=O)N[C@H](C(=O)N[C@@H](CC(C)C)[C@@H](O)CC(=O)N[C@@H](C)C(=O)N[C@@H](CC(C)C)[C@@H](O)CC(=O)O)C(C)C)C(C)C` , viability change, negative = cytotoxic reported as inactive

###

# assay name: cAMP Responsive Elements (CRE) small molecule agonists, cell-based qHTS assay: qHTS cell viability counter screen (AID 2060914);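 further: viability read after 3 h of compound exposure; on the % scale 0 is the no-effect control and ±100 the full control effect; nearly all actives have a fitted effect of over 50% in size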
# run conditions: CRE-bla HEK293T viability, CellTiter-Glo luminescence, 5 h; series mostly up to 92.4 µM
# Source text: National Center for Advancing Translational Sciences [NCATS] Division of Preclinical Innovation [DPI] U.S. Environmental Protection Agency [EPA] National Institutes of Environmental Health Sciences [NIEHS] National Toxicology Program [NTP] U.S. Food and Drug Administration [FDA] CREB (cyclic-AMP Responsive Element Binding Protein) is a cellular transcription factor. […] The activation of the report gene under culture conditions can be detected by fluorescence intensity. […]
Inconclusive results are not listed. Activity calls are given as the source filed them. Calls follow the shape of the dose curve; as a rule, active = well fitted cell-killing curve with a large enough effect in the repeat runs; inconclusive = weak or mixed curves, or effect the other way; inactive = flat fitted curve, though single readings scatter.
parameter measured: activity change, negative = cytotoxicity

Below: 5 compounds and their reported activity change, negative = cytotoxicity.
1. CC(=O)O[C@]1(C(C)=O)CC[C@H]2[C@@H]3C=C(C)C4=CC(=O)CC[C@]4(C)[C@H]3CC[C@@]21C | inactive
2. Cc1ccc(N)c(S(=O)(=O)O)c1 | inactive
3. CC(C)=CCC[C@H](C)CCO | inactive
4. Cc1cnc(NS(=O)(=O)c2ccc(N)cc2)nc1 | inactive
5. COc1ccc(/C=C/S(=O)(=O)NC(=O)c2ccc(C)cc2Cl)cc1 | inactive

Entry `CC1=CC(=O)NS(=O)(=O)O1` , activity change, negative = cytotoxicity reported as inactive

Entry `CCCc1ncc(C(=O)O)s1` , activity change, negative = cytotoxicity reported as inactive

Entry `NC(=O)CC[C@@H]1NC(=O)[C@H](Cc2ccccc2)NC(=O)[C@H](Cc2ccc(O)cc2)NC(=O)CCSSC[C@@H](C(=O)N2CCC[C@H]2C(=O)N[C@@H](CCCN=C(N)N)C(=O)NCC(N)=O)NC(=O)[C@H](CC(N)=O)NC1=O` , activity change, negative = cytotoxicity reported as inactive

Entry `CCCCCCCCCCCCCOC(=O)CCSCCC(=O)OCCCCCCCCCCCCC` , activity change, negative = cytotoxicity reported as -4.92% [at 18.9 µM] (inactive)

Entry `Cc1ccc(C=O)cc1` , activity change, negative = cytotoxicity reported as inactive
